Hey, just so you know, these numbers are from ChEMBL document CHEMBL2010685.

# System: K562
# method.notes: Cytotoxicity against human K562 cells after 72 hrs by MTS assay
# Type: functional, cell-based
# details: K562, 72 h
// reported IC50 for each item listed

Task: Given the entry COC(=O)CN1Cc2cc(OC)c3c(c2-c2c(cc(OC)c4c2OCO4)C1=O)OCO3 , what IC50 was observed with K562?
Result: > 100 µM

Task: Given the entry COc1cc2c(c3c1OCO3)-c1c(cc(OC)c3c1OCO3)CN(CCO)C2 , what IC50 was observed with K562?
Result: > 200 µM

Task: Given the entry COc1cc2c(c3c1OCO3)-c1c(cc(OC)c3c1OCO3)CN(CCc1ccc3c(c1)OCO3)C2 , what IC50 was observed with K562?
Result: 53.7 µM

Task: Given the entry CCN1Cc2cc(OC)c3c(c2-c2c(cc(OC)c4c2OCO4)C1)OCO3 , what IC50 was observed with K562?
Result: 125 µM
